assay.comment: Bioavailability in Sprague-Dawley rat at 20 mg/kg, intra-duodenum in 5% dextrose
Format: ADME, organism-based
experimental.context: in vivo
endpoint.label: bioavailability (%)

- structure.notation: "COCCCc1cc(CN(C(=O)[C@H]2CNCC[C@@H]2c2ccc(OCCOc3c(Cl)cc(C)cc3Cl)cc2)C2CC2)cc(OC[C@H]2C[C@@H]2C(=O)O)c1"
  reported.measurement: 0

====

assay.comment: Oral bioavailability in Sprague-Dawley rat at 30 mg/kg in 60% PEG 200 at PH 2.5
Type: ADME, organism-based
experimental.context: in vivo

- structure.notation: "COCCCc1cc(CN(C(=O)[C@H]2CNCC[C@@H]2c2ccc(OCCOc3c(Cl)cc(C)cc3Cl)cc2)C2CC2)cc(OC[C@H]2C[C@@H]2C(=O)O)c1"
  bioavailability: "1%"

====

assay.comment: Oral bioavailability in Beagle dog at 3 mg/kg in 0.5% methocel
Type: ADME, organism-based, Canis lupus familiaris
experimental.context: in vivo

- structure.notation: "CCOC(=O)[C@H]1C[C@@H]1COc1cc(CCCOC)cc(CN(C(=O)[C@H]2CNCC[C@@H]2c2ccc(OCCOc3c(Cl)cc(C)cc3Cl)cc2)C2CC2)c1"
  units.symbol: "%"
  bioavailability: 6

====

System: Liver
assay.comment: Metabolic stability in human liver S9 fraction assessed as conversion to (1R,2R)-2-((3-(((3R,4S)-N-cyclopropyl-4-(4-(2-(2,6-dichloro-4-methylphenoxy)ethoxy)phenyl)piperidine-3-carboxamido)methyl)-5-(3-methoxypropyl)phenoxy)methyl)cyclopropanecarboxylic acid after 20 mins
Assay type: ADME, subcellular
experimental.context: s9, 20 min
endpoint.label: Activity (%)

- compound: "CCOC(=O)OC(C)OC(=O)[C@H]1C[C@@H]1COc1cc(CCCOC)cc(CN(C(=O)[C@H]2CNCC[C@@H]2c2ccc(OCCOc3c(Cl)cc(C)cc3Cl)cc2)C2CC2)c1 (some centres undefined)"
  study.system: "Liver"
  units.symbol: "%"
  reported.measurement: 90
- compound: "CCOC(=O)[C@H]1C[C@@H]1COc1cc(CCCOC)cc(CN(C(=O)[C@H]2CNCC[C@@H]2c2ccc(OCCOc3c(Cl)cc(C)cc3Cl)cc2)C2CC2)c1"
  study.system: "Liver"
  units.symbol: "%"
  reported.measurement: 56
- compound: "COCCCc1cc(CN(C(=O)[C@H]2CN(C(=O)OCc3oc(=O)oc3C)CC[C@@H]2c2ccc(OCCOc3c(Cl)cc(C)cc3Cl)cc2)C2CC2)cc(OC[C@H]2C[C@@H]2C(=O)O)c1"
  study.system: "Liver"
  units.symbol: "%"
  reported.measurement: 99
- compound: "COCCCc1cc(CN(C(=O)[C@H]2CNCC[C@@H]2c2ccc(OCCOc3c(Cl)cc(C)cc3Cl)cc2)C2CC2)cc(OC[C@H]2C[C@@H]2C(=O)OCOC(=O)C(C)(C)C)c1"
  study.system: "Liver"
  units.symbol: "%"
  reported.measurement: 95

====

Tested on: Liver
assay.comment: Metabolic stability in Sprague-Dawley rat liver S9 fraction assessed as conversion to (1R,2R)-2-((3-(((3R,4S)-N-cyclopropyl-4-(4-(2-(2,6-dichloro-4-methylphenoxy)ethoxy)phenyl)piperidine-3-carboxamido)methyl)-5-(3-methoxypropyl)phenoxy)methyl)cyclopropanecarboxylic acid after 20 mins
Type: ADME, subcellular
experimental.context: s9, 20 min

- compound: "COCCCc1cc(CN(C(=O)[C@H]2CNCC[C@@H]2c2ccc(OCCOc3c(Cl)cc(C)cc3Cl)cc2)C2CC2)cc(OC[C@H]2C[C@@H]2C(=O)OCC(=O)N(C)C)c1"
  Activity [%]: 66
- compound: "CCOC(=O)OC(C)OC(=O)[C@H]1C[C@@H]1COc1cc(CCCOC)cc(CN(C(=O)[C@H]2CNCC[C@@H]2c2ccc(OCCOc3c(Cl)cc(C)cc3Cl)cc2)C2CC2)c1 (stereo not given in full)"
  Activity [%]: 81
- compound: "CCOC(=O)[C@H]1C[C@@H]1COc1cc(CCCOC)cc(CN(C(=O)[C@H]2CNCC[C@@H]2c2ccc(OCCOc3c(Cl)cc(C)cc3Cl)cc2)C2CC2)c1"
  Activity [%]: 60
- compound: "COCCCc1cc(CN(C(=O)[C@H]2CN(C(=O)OCc3oc(=O)oc3C)CC[C@@H]2c2ccc(OCCOc3c(Cl)cc(C)cc3Cl)cc2)C2CC2)cc(OC[C@H]2C[C@@H]2C(=O)O)c1"
  Activity [%]: 98
- compound: "COCCCc1cc(CN(C(=O)[C@H]2CNCC[C@@H]2c2ccc(OCCOc3c(Cl)cc(C)cc3Cl)cc2)C2CC2)cc(OC[C@H]2C[C@@H]2C(=O)OCOC(=O)C(C)(C)C)c1"
  Activity [%]: 83

====

Quick reference: IC50 of the listed items.
study.system: Renin (Homo sapiens)
Sequence (P00797 whole entry): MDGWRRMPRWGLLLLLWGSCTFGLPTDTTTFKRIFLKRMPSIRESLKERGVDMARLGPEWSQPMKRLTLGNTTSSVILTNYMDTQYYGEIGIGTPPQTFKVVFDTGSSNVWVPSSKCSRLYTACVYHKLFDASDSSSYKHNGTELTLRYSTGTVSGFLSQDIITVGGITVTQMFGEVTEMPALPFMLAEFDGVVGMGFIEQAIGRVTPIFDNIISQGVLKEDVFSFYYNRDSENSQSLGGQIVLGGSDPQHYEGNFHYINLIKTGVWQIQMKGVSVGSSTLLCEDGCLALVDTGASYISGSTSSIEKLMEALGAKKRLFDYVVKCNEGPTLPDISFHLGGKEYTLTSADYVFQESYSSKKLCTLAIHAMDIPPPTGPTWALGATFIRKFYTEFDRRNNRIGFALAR
assay.comment: Inhibition of human recombinant renin in PBS buffer using tetradecapeptide at pH 7.4
endpoint.label: IC50

- structure.notation: "COCCCc1cc(CN(C(=O)[C@H]2CNCC[C@@H]2c2ccc(OCCOc3c(Cl)cc(C)cc3Cl)cc2)C2CC2)cc(OCCC(C)(C)C(=O)O)c1"
  endpoint.label: "IC50"
  reported.measurement: "0.02 nM"
- structure.notation: "COCCCc1cc(CN(C(=O)[C@H]2CNCC[C@@H]2c2ccc(OCCOc3c(Cl)cc(C)cc3Cl)cc2)C2CC2)cc(OCC2(CC(=O)O)CC2)c1"
  endpoint.label: "IC50"
  reported.measurement: "0.04 nM"
- structure.notation: "CCOC(=O)[C@H]1C[C@@H]1COc1cc(CCCOC)cc(CN(C(=O)[C@H]2CNCC[C@@H]2c2ccc(OCCOc3c(Cl)cc(C)cc3Cl)cc2)C2CC2)c1"
  endpoint.label: "IC50"
  reported.measurement: "0.064 nM"
- structure.notation: "COCCCc1cc(CN(C(=O)[C@H]2CNCC[C@@H]2c2ccc(OCCOc3c(Cl)cc(C)cc3Cl)cc2)C2CC2)cc(OCCC2(C(=O)O)CCCC2)c1"
  endpoint.label: "IC50"
  reported.measurement: "0.01 nM"
- structure.notation: "COCCCc1cc(CN(C(=O)[C@H]2CNCC[C@@H]2c2ccc(OCCOc3c(Cl)cc(C)cc3Cl)cc2)C2CC2)cc(OCC2(CC#N)CC2)c1"
  endpoint.label: "IC50"
  reported.measurement: "0.028 nM"
- structure.notation: "COCCCc1cc(CN(C(=O)[C@H]2CNCC[C@@H]2c2ccc(OCCOc3c(Cl)cc(C)cc3Cl)cc2)C2CC2)cc(OCCCC(C)(C)C(=O)O)c1"
  endpoint.label: "IC50"
  reported.measurement: "0.01 nM"
- structure.notation: "CCNC(=O)NCCCOc1cc(CCCOC)cc(CN(C(=O)[C@H]2CNCC[C@@H]2c2ccc(OCCOc3c(Cl)cc(C)cc3Cl)cc2)C2CC2)c1"
  endpoint.label: "IC50"
  reported.measurement: "0.022 nM"
- structure.notation: "COCCCc1cc(CN(C(=O)[C@H]2CNCC[C@@H]2c2ccc(OCCOc3c(Cl)cc(C)cc3Cl)cc2)C2CC2)cc(OC[C@H]2C[C@@H]2C(=O)NS(C)(=O)=O)c1"
  endpoint.label: "IC50"
  reported.measurement: "0.01 nM"
- structure.notation: "COCCCc1cc(CN(C(=O)[C@H]2CNCC[C@@H]2c2ccc(OCCOc3c(Cl)cc(C)cc3Cl)cc2)C2CC2)cc(OCC(C)(C)C(=O)O)c1"
  endpoint.label: "IC50"
  reported.measurement: "0.06 nM"
- structure.notation: "COCCCc1cc(CN(C(=O)[C@H]2CNCC[C@@H]2c2ccc(OCCOc3c(Cl)cc(C)cc3Cl)cc2)C2CC2)cc(OCC[C@](C)(OC)C(=O)O)c1"
  endpoint.label: "IC50"
  reported.measurement: "0.06 nM"
- structure.notation: "COCCCc1cc(CN(C(=O)[C@H]2CNCC[C@@H]2c2ccc(OCCOc3c(Cl)cc(C)cc3Cl)cc2)C2CC2)cc(OC[C@H]2C[C@@H]2C(=O)O)c1"
  endpoint.label: "IC50"
  reported.measurement: "0.027 nM"
- structure.notation: "COCCCc1cc(CN(C(=O)[C@H]2CNCC[C@@H]2c2ccc(OCCOc3c(Cl)cc(C)cc3Cl)cc2)C2CC2)cc(OCCCNS(C)(=O)=O)c1"
  endpoint.label: "IC50"
  reported.measurement: "0.028 nM"

====

Quick reference: IC50 of the listed items.
study.system: Cytochrome P450 3A4 (Homo sapiens)
Sequence (P08684 whole entry): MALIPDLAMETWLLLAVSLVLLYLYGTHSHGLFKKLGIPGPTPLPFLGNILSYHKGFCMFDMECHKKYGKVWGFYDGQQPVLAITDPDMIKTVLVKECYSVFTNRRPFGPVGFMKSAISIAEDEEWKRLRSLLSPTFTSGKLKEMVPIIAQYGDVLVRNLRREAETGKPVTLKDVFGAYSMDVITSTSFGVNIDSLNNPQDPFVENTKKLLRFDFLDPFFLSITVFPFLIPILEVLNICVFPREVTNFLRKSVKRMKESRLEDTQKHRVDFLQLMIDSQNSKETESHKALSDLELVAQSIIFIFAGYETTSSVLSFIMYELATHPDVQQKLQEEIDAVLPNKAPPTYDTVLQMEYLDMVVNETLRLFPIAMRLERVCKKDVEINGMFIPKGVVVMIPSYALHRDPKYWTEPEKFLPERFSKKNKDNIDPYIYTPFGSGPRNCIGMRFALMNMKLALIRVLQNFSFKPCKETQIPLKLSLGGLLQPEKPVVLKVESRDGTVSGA
assay.comment: Inhibition of human CYP3A4 in human liver microsomes assessed as formation of 6beta-hydroxy-testosterone using testosterone as substrate by high throughput mass spectrometry in absence of NADPH
Type: ADME, Microsome
endpoint.label: IC50

- structure.notation: "COCCCc1cc(CN(C(=O)[C@H]2CNCC[C@@H]2c2ccc(OCCOc3c(Cl)cc(C)cc3Cl)cc2)C2CC2)cc(OCC2(CC(=O)O)CC2)c1"
  endpoint.label: "IC50"
  reported.measurement: "> 50 µM"
- structure.notation: "COCCCc1cc(CN(C(=O)[C@H]2CNCC[C@@H]2c2ccc(OCCOc3c(Cl)cc(C)cc3Cl)cc2)C2CC2)cc(OCC2(Cc3nn[nH]n3)CC2)c1"
  endpoint.label: "IC50"
  reported.measurement: "> 50 µM"
- structure.notation: "COCCCc1cc(CN(C(=O)[C@H]2CNCC[C@@H]2c2ccc(OCCOc3c(Cl)cc(C)cc3Cl)cc2)C2CC2)cc(OC[C@H]2C[C@@H]2C(=O)O)c1"
  endpoint.label: "IC50"
  reported.measurement: "> 50 µM"
- structure.notation: "CCOC(=O)[C@H]1C[C@@H]1COc1cc(CCCOC)cc(CN(C(=O)[C@H]2CNCC[C@@H]2c2ccc(OCCOc3c(Cl)cc(C)cc3Cl)cc2)C2CC2)c1"
  endpoint.label: "IC50"
  reported.measurement: "19.3 µM"
- structure.notation: "CCNC(=O)NCCCOc1cc(CCCOC)cc(CN(C(=O)[C@H]2CNCC[C@@H]2c2ccc(OCCOc3c(Cl)cc(C)cc3Cl)cc2)C2CC2)c1"
  endpoint.label: "IC50"
  reported.measurement: "6.3 µM"
- structure.notation: "COCCCc1cc(CN(C(=O)[C@H]2CNCC[C@@H]2c2ccc(OCCOc3c(Cl)cc(C)cc3Cl)cc2)C2CC2)cc(OC[C@H]2C[C@@H]2C(=O)NS(C)(=O)=O)c1"
  endpoint.label: "IC50"
  reported.measurement: "> 50 µM"
- structure.notation: "COCCCc1cc(CN(C(=O)[C@H]2CNCC[C@@H]2c2ccc(OCCOc3c(Cl)cc(C)cc3Cl)cc2)C2CC2)cc(OCCC2(C(=O)O)CCCC2)c1"
  endpoint.label: "IC50"
  reported.measurement: "> 50 µM"
- structure.notation: "COCCCc1cc(CN(C(=O)[C@H]2CNCC[C@@H]2c2ccc(OCCOc3c(Cl)cc(C)cc3Cl)cc2)C2CC2)cc(OCCCC(C)(C)C(=O)O)c1"
  endpoint.label: "IC50"
  reported.measurement: "> 50 µM"
- structure.notation: "COCCCc1cc(CN(C(=O)[C@H]2CNCC[C@@H]2c2ccc(OCCOc3c(Cl)cc(C)cc3Cl)cc2)C2CC2)cc(OCCOC)c1"
  endpoint.label: "IC50"
  reported.measurement: "21.6 µM"
- structure.notation: "COCCCc1cc(CN(C(=O)[C@H]2CNCC[C@@H]2c2ccc(OCCOc3c(Cl)cc(C)cc3Cl)cc2)C2CC2)cc(OCCC(C)(C)C(=O)O)c1"
  endpoint.label: "IC50"
  reported.measurement: "> 50 µM"
- structure.notation: "COCCCc1cc(CN(C(=O)[C@H]2CNCC[C@@H]2c2ccc(OCCOc3c(Cl)cc(C)cc3Cl)cc2)C2CC2)cc(OCC(C)(C)C(=O)O)c1"
  endpoint.label: "IC50"
  reported.measurement: "> 50 µM"
- structure.notation: "COCCCc1cc(CN(C(=O)[C@H]2CNCC[C@@H]2c2ccc(OCCOc3c(Cl)cc(C)cc3Cl)cc2)C2CC2)cc(OCC2(CC#N)CC2)c1"
  endpoint.label: "IC50"
  reported.measurement: "19.6 µM"
- structure.notation: "COCCCc1cc(CN(C(=O)[C@H]2CNCC[C@@H]2c2ccc(OCCOc3c(Cl)cc(C)cc3Cl)cc2)C2CC2)cc(OCC[C@](C)(OC)C(=O)O)c1"
  endpoint.label: "IC50"
  reported.measurement: "> 50 µM"
- structure.notation: "COCCCc1cc(CN(C(=O)[C@H]2CNCC[C@@H]2c2ccc(OCCOc3c(Cl)cc(C)cc3Cl)cc2)C2CC2)cc(OCC(C)(C)O)c1"
  endpoint.label: "IC50"
  reported.measurement: "> 50 µM"
- structure.notation: "CCC(CC)(CCOc1cc(CCCOC)cc(CN(C(=O)[C@H]2CNCC[C@@H]2c2ccc(OCCOc3c(Cl)cc(C)cc3Cl)cc2)C2CC2)c1)C(=O)O"
  endpoint.label: "IC50"
  reported.measurement: "> 50 µM"
- structure.notation: "COCCCc1cc(CN(C(=O)[C@H]2CNCC[C@@H]2c2ccc(OCCOc3c(Cl)cc(C)cc3Cl)cc2)C2CC2)cc(OCCN(C)C)c1"
  endpoint.label: "IC50"
  reported.measurement: "22.7 µM"

The measurements presented in this section are drawn from ChEMBL document CHEMBL1759994.
